Tested on: intestinal alkaline phosphatase [Mus musculus]
Assay Comment: mouse intestinal phosphatase enzyme activation – biochemical, luminescence, single concentration, confirmation (AID 434970)
Measurement Context: purified mouse IAP, CDP-Star luminescence, 30 min, at 10 µM; measured here: IAP activation factor, stronger effect = higher value
Among all 11,000 compounds or so, about 310 (2.8%) were called active. The list comes from a sample in which actives are over-represented; it also holds close analogues and randomly drawn compounds.
activation factor reference
Respond using a number only.

Compound: O=C(Nc1ccc(Cl)cc1)Nc1ccc(Cl)c(Cl)c1
Experimental Target: intestinal alkaline phosphatase [Mus musculus]
activation factor: 2.27
//
Compound: Cc1ccc(C)c(N(C)C(=O)c2coc(=O)c3ccccc23)c1
Experimental Target: intestinal alkaline phosphatase [Mus musculus]
activation factor: 0.967
//
Compound: Cc1cc(NC(=O)CCC(=O)N(Cc2ccco2)C(C)(C)C(=O)NC2CCCCC2)no1
Experimental Target: intestinal alkaline phosphatase [Mus musculus]
activation factor: 1.05

intestinal alkaline phosphatase [Mus musculus] assay, compound COc1cc(NC(=O)C(Cc2ccccc2)n2cccc2)cc(OC)c1 (stereo not drawn) , recorded activation factor = 1.12

intestinal alkaline phosphatase [Mus musculus] assay, compound COc1ccc(C2=NOC(Cn3nc(-c4ccccc4)cc3C(=O)NCc3cccs3)C2)cc1 (stereo not drawn) , recorded activation factor = 1.82

The compound CCOC(=O)c1c(N)sc(C(N)=O)c1C , tested on intestinal alkaline phosphatase [Mus musculus], showed activation factor of 1.01

intestinal alkaline phosphatase [Mus musculus] data for O=C(Nc1ccc(Br)cc1)Nc1ccccc1F ; its activation factor: 1.81

Form: item O=C1CN=C(Nc2ccccc2Cl)N1Cc1ccc2c(c1)OCO2 ; test system intestinal alkaline phosphatase [Mus musculus]; activation factor: 1.07

###

Tested on: intestinal alkaline phosphatase [Mus musculus]
Assay Comment: mouse intestinal phosphatase enzyme activation – biochemical, luminescence, single concentration, confirmation (AID 434970)
Measurement Context: purified mouse IAP, CDP-Star luminescence, 30 min, at 10 µM; measured here: IAP activation factor, stronger effect = higher value
The whole screen tested about 11,000 compounds, of which about 310 (2.8%) were called active. This is one part of a sample in which actives are shown more often than they occur.
Assay Endpoint: activation factor
Reply: number alone, nothing else.

Compound: CC(C)CC(c1nnnn1Cc1cccs1)N1CCN(c2nc3ccccc3s2)CC1 (stereo not drawn)
activation factor: 0.985
--
Compound: O=C(NCC1CC1)C1CCCN(S(=O)(=O)c2ccc(-n3cnnn3)cc2)C1 (stereo not drawn)
activation factor: 1.01
--
Compound: Cc1c(Cl)cccc1NC(=O)CCN1CCCCCC1
activation factor: 0.984
--
Compound: Cc1ccc(NC(=O)Cn2cccc2)c(C)c1
activation factor: 1.01
--
Compound: CC(C)OCCCNC(=O)C(=O)NCCCOC(C)C
activation factor: 0.962

COc1ccc(N2C(=O)CCC(C(=O)NCc3cccnc3)C2c2ccc(OC)c(OC)c2)cc1 (stereo not drawn) has a reported activation factor of 0.977

Memo: CC(C)(C)c1ccc(OCc2nc(-c3ccccn3)no2)c(Br)c1 , reported activation factor: 0.924

CCCn1c(Cc2ccccc2)nnc1SCC(=O)N1CCOCC1 has a reported activation factor of 0.955

###

Tested on: intestinal alkaline phosphatase [Mus musculus]
Assay Comment: mouse intestinal phosphatase enzyme activation – biochemical, luminescence, single concentration, confirmation (AID 434970)
Measurement Context: purified mouse IAP, CDP-Star luminescence, 30 min, at 10 µM; stronger effect = lower value
Screen size: about 11,000 compounds; about 310 (2.8%) were called active. This is one part of a sample in which actives are shown more often than they occur.
Reported values of activity change, negative = activation for individual entries
API: value field is a number in %; no unit string.

Compound: Cc1[nH]c2ccccc2c1C(=O)COC(=O)C1CC(=O)N(Cc2ccco2)C1 (configuration not stated)
activity change, negative = activation [%]: -13.6
//
Compound: Cc1cccc(NC(=O)C2=C(O)c3ccccc3N(C)S2(=O)=O)c1
activity change, negative = activation [%]: 0.2
//
Compound: O=C(C1CCCN1C(=O)c1cccs1)N1CCN(Cc2ccc3c(c2)OCO3)CC1 (configuration not stated)
activity change, negative = activation [%]: 7.55
//
Compound: CCOc1ccc(NC(=O)Nc2cc(OCC(F)(F)F)cc(OCC(F)(F)F)c2)cc1
activity change, negative = activation [%]: -108
//
Compound: CC(NC(=O)CCSc1nc(-c2ccco2)cc(C(F)(F)F)n1)c1ccccc1 (configuration not stated)
activity change, negative = activation [%]: 6

Kindly note the recorded activity change, negative = activation for c1ccc(-n2nnnc2SCc2cccc3nsnc23)cc1 , which is 9.2

The measured activity change, negative = activation associated with COc1ccc(Cc2nnc(NC(=O)C3CCCO3)s2)cc1OC (configuration not stated) reads -1.15

// field: activity change, negative = activation; key: CC(C)(C)c1ccc(NC(=O)Nc2ccc(F)cc2)cc1 ; value = -65.3

// field: activity change, negative = activation; key: COc1cccc(NC2=NC3(CCCCC3)N=C(N)N2)c1 ; value = -50.5

// recorded activity change, negative = activation for CCCN=C1N(CC)C[C@@H]2[C@@H]3C(=O)N(Cc4ccccc4)C(=O)[C@@H]3[C@](Cc3ccccc3)(C(=O)OC)N12 : -7.35

# activity change, negative = activation of COc1cccc(-c2csc(NC(=O)Nc3ccccc3)n2)c1 = -111

The recorded activity change, negative = activation for entry c1coc(C2Nc3ccccc3C3OCCC23)c1 (configuration not stated) equals -10.4

For O=C(Nc1ccccc1)Nc1nc(-c2ccc(F)cc2)cs1 the compound record lists activity change, negative = activation as -62.5

For record O=C(Nc1cccc(Cl)c1)Nc1nc(-c2ccccc2)cs1 the listed activity change, negative = activation is -116

###

Consider the following molecules and their measured activity change, negative = activation readings.
System: intestinal alkaline phosphatase [Mus musculus]
Assay Comment: mouse intestinal phosphatase enzyme activation – biochemical, luminescence, single concentration, confirmation (AID 434970)
Measurement Context: purified mouse IAP, CDP-Star luminescence, 30 min, at 10 µM; stronger effect = lower value
The whole screen tested about 11,000 compounds, of which about 310 (2.8%) were called active. The sample holds actives, similar compounds and a random draw of the others, so the mix is not that of the screen.
The response must be a number in % with no trailing unit.

Please review the following examples before continuing.
Mol Smiles: COc1ccccc1/C=C/CN1CCC(n2nccc2NC(=O)CCc2ccccc2)CC1
activity change, negative = activation, %: -121
//
Mol Smiles: O=C(Nc1nc(-c2cccs2)cs1)c1ccc(Cl)cc1
activity change, negative = activation, %: 20.7

In the following, a different molecule is considered.
The molecule listed as Cc1sc2nc(SCC(=O)Nc3c(C)n(C)n(-c4ccccc4)c3=O)n(C)c(=O)c2c1C shows activity change, negative = activation equal to 22.9
